# target under test: hOGG1 K249Q (catalytically inactive) (human, UniProt O15527 1-345, K249Q)
# Sequence (O15527 whole entry K249Q): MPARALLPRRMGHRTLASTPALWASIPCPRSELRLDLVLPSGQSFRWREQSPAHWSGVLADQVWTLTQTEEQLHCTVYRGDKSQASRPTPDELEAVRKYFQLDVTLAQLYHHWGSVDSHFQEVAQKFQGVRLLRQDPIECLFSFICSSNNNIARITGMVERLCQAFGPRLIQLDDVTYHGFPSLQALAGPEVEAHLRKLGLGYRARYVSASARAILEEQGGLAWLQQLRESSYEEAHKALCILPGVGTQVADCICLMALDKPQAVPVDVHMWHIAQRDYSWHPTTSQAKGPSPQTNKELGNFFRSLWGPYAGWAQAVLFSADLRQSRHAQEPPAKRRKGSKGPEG
# protocol text: EMSA
measurement name: pKd
Note on pKd: it is the negative log10 of concentration, concentration in mol/L.

Query :: Identify the reported pKd for the following entry. Stem-DUP (dsDNA, 8-oxoG in 2nd CAG repeat (G6 of strand 1)) DNA 1: CAGCAGCAGCAGCAGCAGCAGCAGCAGCAG DNA 2: CTGCTGCTGCTGCTGCTGCTGCTGCTGCTG
Result :: 7.66
